Where these numbers come from: the supplement of paper PMC10037445

system: RAW-Dual; assay: NF-kB SEAP reporter activity, fold change vs agonist alone; cytotoxicity flag (confluency mask): not cytotoxic; higher = enhanced NF-kB activity; settings: agonist: Pam3CSK4 (TLR2/1) 0.1 ug/mL
The full ranking holds about 2,900 compounds; the median of “NF-kB SEAP reporter activity, fold change vs agonist alone” is about 0.99, and the highest 2% start at about 2.6. What follows is part of a selection rich in the highest values, with near analogues and random picks from the rest.
Decision: NF-kB SEAP reporter activity compared against 0.7; not below it gives met, below it gives not met.

In: Check if NF-kB SEAP reporter activity >= 0.7 (inclusive). Item: Cc1ccc(NC(=O)c2ccc(CN3CCN(C)CC3)cc2)cc1Nc1nccc(-c2cccnc2)n1 (library stock concentration (final ~1000-fold dilution): 10 mM)
Out: met

In: Does Cn1cc(/C=C/C(=O)c2cccc(F)c2)cc1/C=C/C(=O)NO (library stock concentration (final ~1000-fold dilution): 10 mM) have a reported NF-kB SEAP reporter activity of at least 0.7?
Out: not met

In: Quick check, NF-kB SEAP reporter activity >= 0.7? Nc1ccccc1NC(=O)c1ccc(CNC(=O)OCc2cccnc2)cc1 (library stock concentration (final ~1000-fold dilution): 10 mM)
Out: met

In: Is it the case that Cl.O=S(=O)(c1cccc2c(I)cccc12)N1CCCNCC1 (library stock concentration (final ~1000-fold dilution): 10 mM) has NF-kB SEAP reporter activity reaching or exceeding 0.7?
Out: not met

In: # bool: NF-kB SEAP reporter activity of C=CC1(C)CC(OC(=O)CSC(C)(C)CNC(=O)C(N)C(C)C)C2(C)C(C)CCC3(CCC(=O)C32)C(C)C1O.Cl (stereo unspecified) (library stock concentration (final ~1000-fold dilution): 10 mM) >= 0.7
Out: met

In: Could you verify whether the entry Cc1nc2cc(F)c(F)cc2n1-c1cncc(Nc2ccc(C(F)(F)F)cc2)n1 (library stock concentration (final ~1000-fold dilution): 10 mM) shows NF-kB SEAP reporter activity of no less than 0.7?
Out: not met

In: Assess whether reported NF-kB SEAP reporter activity for CCN(C(=O)c1c(O)n(C)c2cccc(Cl)c2c1=O)c1ccccc1 (library stock concentration (final ~1000-fold dilution): 10 mM) sits at 0.7 or higher.
Out: met

In: Form field: NF-kB SEAP reporter activity at least 0.7? Entry: COC1CCC(N2C(=O)CNc3ncc(-c4ccc(C(C)(C)O)nc4)nc32)CC1 (stereo unspecified) (library stock concentration (final ~1000-fold dilution): 10 mM)
Out: not met

In: Does COc1cc(C(=O)O)ccc1NC(=O)C1NC(CC(C)(C)C)C(C#N)(c2ccc(Cl)cc2F)C1c1cccc(Cl)c1F (stereo unspecified) (library stock concentration (final ~1000-fold dilution): 10 mM) have a reported NF-kB SEAP reporter activity of at least 0.7?
Out: not met

###

Assignment: determine reported NF-kB SEAP reporter activity for the given compounds.
test system: RAW-Dual; test: NF-kB SEAP reporter activity, fold change vs agonist alone; cytotoxicity flag (confluency mask): not cytotoxic; higher = enhanced NF-kB activity; settings: agonist: Pam3CSK4 (TLR2/1) 0.1 ug/mL
The full ranking holds about 2,900 compounds; the median of “NF-kB SEAP reporter activity, fold change vs agonist alone” is about 0.99, and the highest 2% start at about 2.6. The full list was thinned out, with the highest values kept by preference.
Give a plain numeric answer without units written out.

In: Under RAW-Dual: NF-kB SEAP reporter activity value of CC(C)CC(NP(=O)(O)OC1OC(C)C(O)C(O)C1O)C(=O)NC(Cc1c[nH]c2ccccc12)C(=O)O (stereo unspecified) (library stock concentration (final ~1000-fold dilution): 10 mM) ?
Out: 1.41

In: For the record CC1OC(OC2C(Oc3cc(O)c4c(c3)OC(c3ccc(O)cc3)CC4=O)OC(CO)C(O)C2O)C(O)C(O)C1O (stereo unspecified) (library stock concentration (final ~1000-fold dilution): 10 mM) , what value of NF-kB SEAP reporter activity is listed for RAW-Dual?
Out: 1.13

In: Form entry - test system: RAW-Dual; read-out: NF-kB SEAP reporter activity; compound: Cc1cc2c(C(=O)NCC(C)c3ccccc3)c(O)c(O)cc2c(O)c1-c1c(C)cc2c(C(=O)NCC(C)c3ccccc3)c(O)c(O)cc2c1O (stereo unspecified) (library stock concentration (final ~1000-fold dilution): 10 mM)
Out: 1.62

In: Hello, I am looking for reported NF-kB SEAP reporter activity with RAW-Dual for Cc1cc(Nc2cc(N3CCN(C)CC3)nc(/C=C/c3ccccc3)n2)n[nH]1.O=C(O)C(O)C(O)C(=O)O (library stock concentration (final ~1000-fold dilution): 10 mM) . Could you help?
Out: 0.279

In: Entry COc1cccc(-c2c(C)n(Cc3c(F)cccc3C(F)(F)F)c(=O)n(CC(NCCCC(=O)O)c3ccccc3)c2=O)c1F (stereo unspecified) (library stock concentration (final ~1000-fold dilution): 10 mM) , system RAW-Dual: what NF-kB SEAP reporter activity was measured?
Out: 0.768

In: Observed NF-kB SEAP reporter activity on RAW-Dual for CN(C)Cc1ccc(S(=O)(=O)n2ccc(/C=C/C(=O)NO)c2)cc1 (library stock concentration (final ~1000-fold dilution): 10 mM) , please.
Out: 0.94

In: Field: NF-kB SEAP reporter activity (RAW-Dual). Entry: O=C(NCCN1CCOCC1)c1ccc(Cl)cc1 (library stock concentration (final ~1000-fold dilution): 10 mM)
Out: 1.17

In: // lookup NF-kB SEAP reporter activity | system=RAW-Dual | key= CN1CCCC1CCOC(C)(c1ccccc1)c1ccc(Cl)cc1.O=C(O)/C=C/C(=O)O (stereo unspecified) (library stock concentration (final ~1000-fold dilution): 10 mM)
Out: 0.64

In: Which NF-kB SEAP reporter activity is reported with RAW-Dual for this entry: CC(NCc1ccc(OCc2cccc(F)c2)cc1)C(N)=O (stereo unspecified) (library stock concentration (final ~1000-fold dilution): 10 mM) ?
Out: 0.745

In: Lab request: please report NF-kB SEAP reporter activity under test system RAW-Dual for CC(C)(F)CC(NC(c1ccc(-c2ccc(S(C)(=O)=O)cc2)cc1)C(F)(F)F)C(=O)NC1(C#N)CC1 (stereo unspecified) (library stock concentration (final ~1000-fold dilution): 10 mM)
Out: 0.97

In: Short answer please: NF-kB SEAP reporter activity, RAW-Dual, entry CS(=O)(=O)N1CCN(Cc2cc3nc(-c4cccc5[nH]ncc45)nc(N4CCOCC4)c3s2)CC1 (library stock concentration (final ~1000-fold dilution): 10 mM)
Out: 0.72

In: // lookup NF-kB SEAP reporter activity | system=RAW-Dual | key= Cl.Cl.N/C(=N\OCC(O)CN1CCCCC1)c1cccnc1 (stereo unspecified) (library stock concentration (final ~1000-fold dilution): 10 mM)
Out: 1.09

In: Checklist item: NF-kB SEAP reporter activity tested on RAW-Dual, entry C=CC(=O)N1CC(Nc2ncnc3[nH]ccc23)CCC1C (stereo unspecified) (library stock concentration (final ~1000-fold dilution): 10 mM) , value?
Out: 0.738

In: Test system RAW-Dual; read-out NF-kB SEAP reporter activity; what value for CC#Cc1cncc(-c2ccc3c(c2)C2(N=C(C)C(N)=N2)C2(CCC(OC)CC2)C3)c1 (stereo unspecified) (library stock concentration (final ~1000-fold dilution): 10 mM) ?
Out: 0.972

In: Requested read-out NF-kB SEAP reporter activity, target or system RAW-Dual, entry O=C(/C=C/N1CC2CC1CN2c1ccccn1)c1ccccc1O (stereo unspecified) (library stock concentration (final ~1000-fold dilution): 10 mM)
Out: 1.39

In: For RAW-Dual, provide NF-kB SEAP reporter activity of NC(=O)c1cnc2[nH]ccc2c1NC1C2CC3CC1CC(O)(C3)C2 (stereo unspecified) (library stock concentration (final ~1000-fold dilution): 10 mM) please.
Out: 0.31

In: Form entry - test system: RAW-Dual; read-out: NF-kB SEAP reporter activity; compound: CN1C(=O)C(NC(=O)c2n[nH]c(Cc3ccccc3)n2)COc2ccccc21 (stereo unspecified) (library stock concentration (final ~1000-fold dilution): 10 mM)
Out: 1.15

In: Short answer please: NF-kB SEAP reporter activity, RAW-Dual, entry Cc1c[nH]c(-c2cnc(NCCNc3ccc(C#N)cn3)nc2-c2ccc(Cl)cc2Cl)n1.Cl (library stock concentration (final ~1000-fold dilution): 10 mM)
Out: 3.48

In: Give NF-kB SEAP reporter activity (RAW-Dual) of the following compound: Nc1ccn(CC(CO)OCP(=O)(O)O)c(=O)n1 (stereo unspecified) (library stock concentration (final ~1000-fold dilution): 10 mM water)
Out: 1.29

In: For the record Cc1c(CN2CCC(Nc3ncnc4sc(CC(F)(F)F)cc34)CC2)ccc2[nH]c(C#N)cc12 (library stock concentration (final ~1000-fold dilution): 10 mM) , what value of NF-kB SEAP reporter activity is listed for RAW-Dual?
Out: 0.575

In: Entry Fc1ccc2[nH]ccc2c1-c1nc(N2CCOCC2)c2sc(CN3CCN(CC4CC4)CC3)cc2n1 (library stock concentration (final ~1000-fold dilution): 10 mM) , system RAW-Dual: what NF-kB SEAP reporter activity was measured?
Out: 0.935
